UniProtKB P25779: recorded pKi for assorted molecules
The read-out pKi is expressed as -log10 of concentration in moles per litre.

Below, each entry is followed by its recorded pKi result.
INSERT INTO assay_data (molecular_string, recorded_metric, reported_result) VALUES
  ('Cn1nc(C(C)(C)C)cc1C(=O)N[C@@H](Cc1ccccc1)C(=O)NC1(C#N)CC1', 'pKi', 7.20),
  ('Cn1nc(C(C)(C)C)cc1C(=O)N[C@@H](Cc1ccccc1)C(=O)NCC#N', 'pKi', 7.20);

IN: Any idea what its pKi is? The molecule is `N#CCNC(=O)[C@H](Cc1ccccc1)NC(=O)c1ccccc1`
OUT: 6.30

IN: Recorded pKi of `N#CCNC(=O)[C@H](Cc1c[nH]c2ccccc12)NC(=O)c1ccccc1` , please.
OUT: 6.40

IN: # get_value(readout='pKi', item= `N#CCNC(=O)[C@H](Cc1ccccc1)NC(=O)c1ccco1` )
OUT: 6.30

IN: Please look up its pKi: `N#CCNC(=O)[C@H](Cc1ccc(OC(=O)c2ccccc2)cc1)NC(=O)c1ccccc1`
OUT: 5.90

IN: Fill in: pKi of `CC(C)C[C@H](NC(=O)OC(C)(C)C)C(=O)NCC#N` is ___
OUT: 5.90

IN: Query (molecule): `N#CCNC(=O)C1(NC(=O)c2ccccc2)CCCC1` ; field requested: pKi
OUT: 5.10

IN: Name the recorded pKi for `N#CCNC(=O)[C@H](Cc1cccc(Cl)c1)NC(=O)c1ccccc1` .
OUT: 6.60

IN: Give its pKi value. Item: `CC(C)C[C@H](NC(=O)c1cc(C(C)(C)C)nn1C)C(=O)NCC#N`
OUT: 7.20

IN: Which value of pKi has been reported for `N#CC1(NC(=O)[C@H](Cc2ccccc2)NC(=O)c2ccccc2)CC1` in the records?
OUT: 6.60

IN: Suppose we examine the molecule `N#CCNC(=O)[C@H](Cc1ccccc1)NC(=O)c1ccncn1` ; what pKi value has been reported?
OUT: 5.90

* * *

Test system: T. cruzi CL-Brener strain amastigotes
Experiment: Trypanocidal activity against amastigote forms in LLCMK2 cells, CL-Brener strain
Assay type: cell-based
Details: Trypanosoma cruzi, LLC-MK2, 120 h, amastigote lysis, 5 days, read-out: %cell lysis at 32 μM ama Brener
Each entry below carries its recorded killing at 32 µM.
Lab book: enter the figure in %, no units written.

IN: Give T. cruzi CL-Brener strain amastigotes killing at 32 µM for `N#CCNC(=O)[C@H](Cc1c[nH]c2ccccc12)NC(=O)c1ccccc1`
OUT: 17

IN: Request - read-out killing at 32 µM | tested on T. cruzi CL-Brener strain amastigotes | compound `N#CCNC(=O)C1(NC(=O)c2ccccc2)CCCC1`
OUT: 9

IN: Param readout = killing at 32 µM; param system = T. cruzi CL-Brener strain amastigotes; param query = `N#CCNC(=O)[C@H](Cc1ccccc1)NC(=O)c1cccs1` ; response: value
OUT: 24

IN: Quick check: killing at 32 µM on T. cruzi CL-Brener strain amastigotes, item `N#CCNC(=O)[C@H](Cc1ccccc1)NC(=O)c1cncc(Br)c1` ?
OUT: 25

IN: // fetch T. cruzi CL-Brener strain amastigotes killing at 32 µM for `CC(C)C[C@H](NC(=O)c1cc(C(C)(C)C)nn1C)C(=O)NC1(C#N)CC1`
OUT: 11

* * *

As shown below, each of these molecules has a reported melting point value.

Use these answered entries as a reference point.
INSERT INTO results (molecular_string, reported_result) VALUES
  ('Cn1nc(C(C)(C)C)cc1C(=O)N[C@@H](Cc1ccccc1)C(=O)NCC#N', '160 to 162 °C'),
  ('N#CCNC(=O)[C@H](Cc1ccccc1)NC(=O)c1ccco1', '176 to 179 °C');

IN: Quick one: melting point for `Cn1nc(C(F)(F)F)cc1C(=O)N[C@@H](Cc1ccccc1)C(=O)NC1(C#N)CC1` ?
OUT: 211 to 212 °C

IN: Data request, read-out melting point, for `N#CCNC(=O)[C@H](Cc1ccccc1)NC(=O)c1ccncn1`
OUT: 171 to 173 °C

IN: I have this molecule here, `N#CCNC(=O)[C@H](Cc1cccc(Cl)c1)NC(=O)c1ccccc1` , and I need its recorded melting point.
OUT: 176 to 178 °C

IN: Fill in the blank: the reported melting point of `N#CCNC(=O)[C@H](CCCNC(=N)N)NC(=O)c1ccccc1` is ____.
OUT: 117 to 118 °C

IN: Returns the measured melting point for the input molecule. Input: `N#CCNC(=O)[C@H](Cc1ccc(O)cc1)NC(=O)c1ccccc1`
OUT: 209 to 210 °C

IN: Quick one: melting point for `N#CC1(NC(=O)[C@H](Cc2ccccc2)NC(=O)c2cnccn2)CC1` ?
OUT: 162 to 164 °C

IN: # melting point lookup, item `N#CCNC(=O)[C@H](Cc1ccc(OC(=O)c2ccccc2)cc1)NC(=O)c1ccccc1`
OUT: 254 to 256 °C

IN: Data request, read-out melting point, for `CC(C)(C)C[C@H](NC(=O)c1ccccc1)C(=O)NC1(C#N)CC1`
OUT: 186 to 187 °C

* * *

Experiment: Lysis of LLCMK2 host cells
Type: cell-based
Settings: rhesus monkey, footnote of Table 3, cell line not stated
RECORDED_METRIC: CC50 at 5 days (µM)
Provide only the numeric value, understood in µM.

IN: Requested read-out: CC50 at 5 days. Entry: O=C(Cn1ccnc1[N+](=O)[O-])NCc1ccccc1 [Benznidazole, reference compound]
OUT: 353

* * *

pKi listing for selected molecules.
Molecular target: cruzain (Trypanosoma cruzi)
Construct: made in house
Sequence (P25779 123-337 limits assumed): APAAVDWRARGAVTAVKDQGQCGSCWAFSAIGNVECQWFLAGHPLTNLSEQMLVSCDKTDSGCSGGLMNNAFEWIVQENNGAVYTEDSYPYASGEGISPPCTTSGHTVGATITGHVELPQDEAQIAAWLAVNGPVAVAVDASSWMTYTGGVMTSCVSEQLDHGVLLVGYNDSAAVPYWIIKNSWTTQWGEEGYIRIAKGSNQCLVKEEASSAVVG
Assay: biochemical
Conditions: 37°C, pH 5.5, substrate Z-FR-AMC
Give the figure by itself; no unit, no explanation.

INSERT INTO assay_data (molecular_string, reported_result) VALUES
  ('CC(C)(C)OC(=O)N[C@@H](Cc1ccccc1)C(=O)NCC#N', 5.6);

IN: Which measured pKi belongs to `N#CCNC(=O)[C@H](Cc1ccccc1)NC(=O)c1cc(=O)[nH]c(=O)[nH]1` , tested on cruzain (Trypanosoma cruzi)?
OUT: 5.9

IN: Item: `Cn1nc(C(F)(F)F)cc1C(=O)N[C@@H](Cc1ccccc1)C(=O)NCC#N` Test system: cruzain (Trypanosoma cruzi) Read-out: pKi Value: ?;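 note: fluorometric read-out of substrate hydrolysis at excitation 355 nm and emission 460 nm, initial rates over 5 min, Ki from nonlinear kinetic fits, duplicate runs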
OUT: 6.3

IN: Look up pKi with cruzain (Trypanosoma cruzi) for this molecule: `N#CC1(NC(=O)C2(NC(=O)c3ccccc3)CCCC2)CC1`
OUT: 4.9

* * *

Catalogue of compounds with associated killing at 32 µM
System: T. cruzi CL-Brener strain amastigotes
Test: Trypanocidal activity against amastigote forms in LLCMK2 cells, CL-Brener strain
Format: cell-based
Conditions: Trypanosoma cruzi, LLC-MK2, 120 h, amastigote lysis, 5 days, read-out: %cell lysis at 32 μM ama Brener
Write the answer as a number in %, unit excluded.

Please review the entries below; each comes with its answer.
INSERT INTO measurements (compound, measurement_units, reported_result) VALUES
  ('CC(C)C[C@H](NC(=O)OC(C)(C)C)C(=O)NCC#N [Compound 27]', '%', 19),
  ('CC(C)C[C@H](NC(=O)c1cc(C(C)(C)C)nn1C)C(=O)NCC#N [Compound 29]', '%', 10),
  ('Cn1nc(C(F)(F)F)cc1C(=O)N[C@@H](Cc1ccccc1)C(=O)NC1(C#N)CC1 [Compound 33]', '%', 22);

IN: Look at this compound and give its reported killing at 32 µM. N#CCNC(=O)[C@H](Cc1ccc(OC(=O)c2ccccc2)cc1)NC(=O)c1ccccc1 [Compound 11]
OUT: 17

IN: Looking for the measured killing at 32 µM of N#CCNC(=O)[C@H](Cc1ccccc1)NC(=O)c1ccncn1 [Compound 18] , can you help?
OUT: 18

IN: Which killing at 32 µM is listed for O=C(Cn1ccnc1[N+](=O)[O-])NCc1ccccc1 [Benznidazole, reference compound] ?
OUT: 29

IN: May I ask what killing at 32 µM has been recorded for N#CCNC(=O)[C@H](Cc1ccc(O)cc1)NC(=O)c1ccccc1 [Compound 10] ?
OUT: 18

IN: // killing at 32 µM lookup, key: Cn1nc(C(C)(C)C)cc1C(=O)N[C@@H](Cc1ccccc1)C(=O)NC1(C#N)CC1 [Compound 34]
OUT: 23

* * *

Let's look at some compounds and their measured killing at 32 µM.
System: T. cruzi CL-Brener strain amastigotes
Test: Trypanocidal activity against amastigote forms in LLCMK2 cells, CL-Brener strain
Format: cell-based
Conditions: Trypanosoma cruzi, LLC-MK2, 120 h, amastigote lysis, 5 days, read-out: %cell lysis at 32 μM ama Brener
The figure you give is taken to be in %; do not add the unit.

INSERT INTO measurements (compound, reported_result) VALUES
  ('N#CCNC(=O)[C@H](Cc1cccc(Cl)c1)NC(=O)c1ccccc1 [Compound 9]', 24),
  ('N#CCNC(=O)[C@H](Cc1ccccc1)NC(=O)c1cnccn1 [Compound 19]', 21);

IN: # get_value(readout='killing at 32 µM', item= N#CCNC(=O)[C@H](Cc1ccccc1)NC(=O)c1ccco1 [Compound 17] )
OUT: 21
